Cited source: the supplement of paper PMC3334620

Molecular target: Abf1 (UniProt P14164)
Sequence: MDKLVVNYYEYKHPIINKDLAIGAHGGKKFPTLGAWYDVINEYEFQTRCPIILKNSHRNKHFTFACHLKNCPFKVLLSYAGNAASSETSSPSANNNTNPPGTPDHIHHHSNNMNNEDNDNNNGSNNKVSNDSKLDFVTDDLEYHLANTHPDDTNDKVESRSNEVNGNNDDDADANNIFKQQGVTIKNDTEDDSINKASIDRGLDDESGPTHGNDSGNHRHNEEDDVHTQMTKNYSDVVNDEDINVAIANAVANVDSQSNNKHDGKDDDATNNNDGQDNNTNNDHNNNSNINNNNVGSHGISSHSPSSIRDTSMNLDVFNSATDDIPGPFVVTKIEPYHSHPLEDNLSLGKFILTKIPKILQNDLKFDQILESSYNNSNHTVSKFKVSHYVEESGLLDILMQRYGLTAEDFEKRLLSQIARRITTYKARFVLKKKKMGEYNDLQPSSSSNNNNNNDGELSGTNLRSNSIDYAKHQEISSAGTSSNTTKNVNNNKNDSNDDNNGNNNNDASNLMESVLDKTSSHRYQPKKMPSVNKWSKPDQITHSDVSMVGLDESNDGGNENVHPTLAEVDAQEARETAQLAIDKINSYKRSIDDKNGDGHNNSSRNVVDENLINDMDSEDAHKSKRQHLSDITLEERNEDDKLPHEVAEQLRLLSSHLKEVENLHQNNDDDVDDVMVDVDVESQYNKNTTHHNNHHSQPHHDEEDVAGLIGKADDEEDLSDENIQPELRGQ
Assay: PBM E-score (8-mer binding enrichment) (E-score (-0.5 to 0.5)); higher = stronger / more preferred TF binding
Conditions: protein concentration: 200 nM; construct: GST-full length
Over roughly 33,000 sequences, “E-score (-0.5 to 0.5)” has its median near -0.015; the highest 2% begin near 0.3. Many of the other results were omitted from the sample, so the highest values are more common in it than they were.
PBM E-score vs 0.1: at or above is rule met, below is rule not met.

For this sequence, is measured PBM E-score 0.1 or higher? GAAGAAAC
rule not met

# repeat for ATCGTTCC
rule not met

Cool, now TGACATAA
rule met

Next sequence: AGGCCTTG
rule not met

Next: ATCGTATG
rule met

Do the same for GGAGTGAC please
rule met

Please answer likewise for CGAGTGAG
rule not met

What about this sequence? CCGATATC
rule met

Try the sequence ACGATATC
rule met

Same again, this time with CGCTCACA
rule not met

Item: ACTGACGA
rule met

Would you mind doing ACGATATA as well?
rule met

Moving on to AACTTAGC
rule not met

Try this sequence next: AATTCACT
rule not met

// query: CCGATACG
rule met

Also check AGTATCGC
rule not met

Further, for TTACATAA ?
rule met

Could you do the same for AGCGTTTG , please?
rule not met

Repeat with ACGGCGCG
rule met

Please answer likewise for GTCGTGTA
rule met

And the next one, CTATTAAA ?
rule not met

Also check TTCCGAAA
rule met

Now give it for GTACAAAA too.
rule met

And the next one, ATCGTTTA ?
rule met

What about CGACAAAA ?
rule met

Item: AGATGCTC
rule not met

Subsequent entry: AATCGTAG
rule met

Now try AATGACGT .
rule met

Also, ACGGCGAG please.
rule met

Quick one: AATCGTAA
rule met

Queued: GCCTTACC
rule not met

And TCGGCGAA ?
rule not met

Further, for CCGTCTAA ?
rule met

Please answer likewise for CTCGTGTA
rule met

Further, for ATCGTTTG ?
rule met

Continue with ACGGCGCC
rule met

Next entry: CCCCGCGG
rule not met

Same read-out for GAAACCGC ?
rule not met

Queued: ACGTATGC
rule not met

Same thing, different sequence: GCGTCGTA
rule met

# repeat for ATAGTATG
rule met

CGAGTGAA , same question.
rule not met

Try GAGAGGAC next.
rule not met

# iterate: ACGCAGTC
rule not met

Same lookup for CATTAGTC , please.
rule not met

Record: CCTGACGA
rule met

Try this sequence too: AGTTATCG
rule met

Another sequence to look at: ACTCGTAT
rule met

What about AATTTCAT ?
rule met

Item: TACCAGTA
rule not met

# iterate: ATCCCGTA
rule met

Okay, and AAGAGGAA ?
rule not met

Same thing, different sequence: ACTCGTAA
rule met

Next: GGACATAA
rule not met

// repeat for AAATAATT and report
rule met

Another sequence: ACCTGCAT
rule not met

Try this sequence next: AGTTATCA
rule met

Would you kindly repeat that for CAGGCACC ?
rule not met

Item: ACTTATCA
rule met

Now the same for AGCGTATG
rule not met

Another: TATTATGA
rule not met

Would you kindly repeat that for CGTAGAAC ?
rule met

And then CTTAGGGC , what is it?
rule not met

Another sequence: GCGGCGAA
rule not met

Do the same for GGAGTGAA please
rule not met

Try the sequence AACAGTAT
rule not met

Same question for GGACAAAA please.
rule not met

Try the sequence ACGATACT
rule met

Another sequence: ATCGTTTC
rule met

Same read-out for ATACAAAA ?
rule not met

Try ACGGCGCT next.
rule not met

Same for ATGGCGAG
rule not met

Quick one: AGGATATC
rule met

Next entry: CCGTCGTA
rule met

Can you check GTACATAA next?
rule met

Repeat with TCTCGTAA
rule met

ACGATACG ?
rule met

Also check ACGGCGAA
rule met

// repeat for ATCAGGGC and report
rule not met

Next sequence: ACTCGTAG
rule met

Now this one: ACGGCGAT
rule met
